biological target: TDP-43 RRM1 (human, UniProt Q13148 101-192); assay: ITC; Kd1; ITC: 15 mM phosphate pH 6.8, 25 mM KCl, 1 mM TCEP, 25 C; NMR: same buffer, 298 K (SEA-HSQC 310 K); EMSA: 20 mM HEPES pH 7.6, 25 mM KCl, 1 mM TCEP, 2 mM MgCl2, room temperature, 10 pmol DNA in 10 uL; conditions: protein: recombinant; tags: His6 cleaved by TEV; chain copies: 2; single strand
Sequence (Q13148 101-192): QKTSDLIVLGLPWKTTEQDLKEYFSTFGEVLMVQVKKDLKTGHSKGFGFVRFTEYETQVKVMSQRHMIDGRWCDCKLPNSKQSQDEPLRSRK
readoutKind: pKd
Scale explanation: pKd corresponds to minus log10 of a concentration expressed in moles per litre.

Please look at this binder and report its pKd: GTGTGTGTGTGTGTGTGTGTGTGT (ssDNA) [(GT)12]
5.64

Please turn your attention to the following entry.
Please look at this binder and report its pKd: GTGTGTGTGTGT (ssDNA) [(GT)6]
7.07
